Biological target: T1, SNTG2, Q9NY99
T1 sequence (Q9NY99 68-166, limits assumed, looked up): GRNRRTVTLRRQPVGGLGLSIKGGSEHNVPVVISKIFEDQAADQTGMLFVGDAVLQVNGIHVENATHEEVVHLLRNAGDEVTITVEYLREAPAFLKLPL
Assay: holdup assay
Design: key: below the threshold = too weak to quantify, mostly under pKd 3.1 to 4
Conditions: plain residues with an end cap or a label only (N-terminal biotin on a linker: ado-ado)
Reported metric: pKd

Below are worked cases with known answers.
• EVNETDDTKM [KCNJ1, P48048] = below the threshold
• DDENIRTSDV [PLEKHA2, Q9HB19] = 4.08
• PRISRSQSEL [CCDC134, Q9H6E4] = below the threshold
• QSARLWETSI [ADAM22, Q9P0K1] = 4.86
• LRSPRTPSEV [OR10G3, Q8NGC4] = below the threshold

[ask] Field request: pKd | item: GNSVLKSTQF [SLC22A12, Q96S37]
[reply] below the threshold

[ask] What would you report for SSALYGESDL [ACTN2, P35609] ?
[reply] below the threshold
